System: mock-infected MT-4 cells
METHOD_SUMMARY: cytotoxicity in mock-infected MT-4 cells (MTT)
Decision: pCC50 (−log CC50) compared against 5 M; not below it gives T, below it gives F.

| MOLECULE | CATEGORY |
| --- | --- |
| CC(=CC#N)c1ccc(Oc2ccnc(Nc3ccc(C#N)cc3)n2)c(C)c1 [Compound 232] | F |
| Cc1cc(/C(=C/C#N)C(C)C)cc(C)c1Nc1ccnc(Nc2ccc(C#N)cc2)n1 [Compound 149] | T |
| CC(C#N)=Cc1ccc(Nc2ccnc(Nc3ccc(C#N)cc3)n2)c(C)c1 [Compound 229] | F |
| C/C(C#N)=C/c1cc(C)c(Nc2ccnc(Nc3ccc(C#N)cc3)n2)c(C)c1 [Compound 152] | F |
| Cc1cc(C(C)CC#N)ccc1Oc1ccnc(Nc2ccc(C#N)cc2)n1 (centres unmarked) [Compound 235] | F |

Enquiry: Given Cc1cc(/C(=C\C#N)C(C)C)cc(C)c1Nc1ccnc(Nc2ccc(C#N)cc2)n1 [Compound 150] , state whether its pCC50 (−log CC50) is at least 5 M.
Return: F

Enquiry: Given Cc1cc(/C=C/C#N)ccc1Oc1ccnc(Nc2ccc(C#N)cc2)n1 [Compound 230] , state whether its pCC50 (−log CC50) is at least 5 M.
Return: F

---

Rule: measured melting point below 200 °C gets class 1; anything equal to or greater than 200 °C gets class 0.

These solved cases illustrate the format of a correct answer.
| COMPOUND_SMILES | CATEGORY |
| --- | --- |
| Cc1cc(/C=C(/C#N)C(=O)C(C)(C)C)cc(C)c1Nc1ccnc(Nc2ccc(C#N)cc2)n1 | class 1 |
| Cc1cc(/C=C\Cl)cc(C)c1Nc1ccnc(Nc2ccc(C#N)cc2)n1 | class 0 |
| Cc1cc(/C=C/c2cccnc2)cc(C)c1Nc1ccnc(Nc2ccc(C#N)cc2)n1 | class 1 |
| Cc1ccc(N(C)C)c(C)c1Nc1ccnc(Nc2ccc(C#N)cc2)n1 | class 1 |

Enquiry: A record lists `Cc1cc(C=C(Br)Br)cc(C)c1Nc1ccnc(Nc2ccc(C#N)cc2)n1` . Is its melting point below 200 °C?
Return: class 0

Enquiry: A record lists `CCCCN(C)C(=O)/C=C/c1cc(C)c(Oc2ccnc(Nc3ccc(C#N)cc3)n2)c(C)c1` . Is its melting point below 200 °C?
Return: class 0

Enquiry: A record lists `Cc1cc(/C=C(/F)C#N)cc(C)c1Oc1ccnc(Nc2ccc(C#N)cc2)n1` . Is its melting point below 200 °C?
Return: class 0

Enquiry: A record lists `Cc1cc(/C=C/C(=O)N(C)CCC#N)cc(C)c1Nc1ccnc(Nc2ccc(C#N)cc2)n1` . Is its melting point below 200 °C?
Return: class 1

Enquiry: A record lists `Cc1cc(C(=O)CC#N)cc(C)c1Nc1ccnc(Nc2ccc(C#N)cc2)n1` . Is its melting point below 200 °C?
Return: class 1

---

Test system: HIV
METHOD_SUMMARY: microbe, parasite or virus in culture
RUN_CONDITIONS: selectivity index, ratio of CC50 to IC50, as log difference
MEASUREMENT_NAME: pSI (pCC50-pIC50)

Enquiry: Please indicate pSI (pCC50-pIC50) recorded for `Cc1cc(/C=C\Br)cc(C)c1Oc1ccnc(Nc2ccc(C#N)cc2)n1`
Return: <−4.3

Enquiry: Please indicate pSI (pCC50-pIC50) recorded for `Cc1cc(CCC#N)ccc1Oc1ccnc(Nc2ccc(C#N)cc2)n1`
Return: <−4.7

Enquiry: Please indicate pSI (pCC50-pIC50) recorded for `CC(C#N)=Cc1ccc(Nc2ccnc(Nc3ccc(C#N)cc3)n2)c(C)c1`
Return: <−4.8
